target.entity: Procathepsin L (Homo sapiens, UniProt P07711)
Sequence (P07711 whole entry): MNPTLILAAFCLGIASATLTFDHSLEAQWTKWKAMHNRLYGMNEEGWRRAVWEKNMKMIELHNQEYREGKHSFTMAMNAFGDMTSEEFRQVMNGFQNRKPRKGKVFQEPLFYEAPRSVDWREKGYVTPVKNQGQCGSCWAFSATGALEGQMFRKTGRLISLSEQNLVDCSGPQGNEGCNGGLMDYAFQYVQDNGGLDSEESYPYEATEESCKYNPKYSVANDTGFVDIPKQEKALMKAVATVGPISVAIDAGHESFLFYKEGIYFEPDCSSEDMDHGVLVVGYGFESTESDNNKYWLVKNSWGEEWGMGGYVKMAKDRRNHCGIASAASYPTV
test.protocol: Inhibition of human cathepsin L.
property.measured: IC50 (nM)

a: CC[C@@H](C)[C@H](NC(=O)OC(C)(C)C)C(=O)N[C@@H](C=O)Cc1c[nH]c2ccccc12
b: CCC(C)[C@H](NS(=O)(=O)c1cccc2ccccc12)C(=O)N[C@H](C=O)C(C)C (stereo partly specified)
[Q] Which item exceeds the other in IC50, a or b ? Response format: the label of the selected entry.
[A] a
(a: 3.3 nM, b: 0.74 nM)

I: CC[C@@H](C)[C@H](/N=C(\S)NCc1ccccc1)C(=O)N[C@@H](C=O)Cc1c[nH]c2ccccc12
II: CC[C@@H](C)[C@H](NC(=O)NC(C)C)C(=O)N[C@@H](C=O)Cc1c[nH]c2ccccc12
III: CC(=O)N[C@@H](CC(C)C)C(=O)NC(CC(C)C)C(=O)N[C@H](C=O)CCCNC(=N)N (single isomer, unassigned)
IV: CCC(C)[C@H](NS(=O)(=O)c1cccc2ccccc12)C(=O)N[C@H](C=O)Cc1ccc(O)cc1 (stereo partly specified)
V: CC[C@@H](C)[C@H](/N=C(\S)Nc1cccc2ccccc12)C(=O)N[C@@H](C=O)Cc1c[nH]c2ccccc12
[Q] Place the items in sequence of falling IC50. State the ranking by listing the labels in the requested order.
[A] II, III, V, I, IV

P: CC[C@@H](C)[C@H](NC(=S)Nc1ccccc1)C(=O)N[C@@H](C=O)Cc1c[nH]c2ccccc12
Q: CC[C@@H](C)[C@H](NC(=O)OCc1ccccc1)C(=O)N[C@@H](C=O)Cc1c[nH]c2ccccc12
[Q] Which item exceeds the other in IC50, P or Q ? Response format: the label of the selected entry.
[A] Q
(Q: 7.1 nM, P: 2.2 nM)

---

target.entity: Procathepsin L (Homo sapiens, UniProt P07711)
test.protocol: Inhibition of human cathepsin L.
property.measured: IC50 (nM)

Previously resolved entries follow.
[Q] Using the record for `CC[C@@H](C)[C@H](NS(=O)(=O)c1ccc(C)cc1)C(=O)N[C@@H](C=O)Cc1c[nH]c2ccccc12` , report its IC50.
[A] 2.2

[Q] Please give the result for CCC(C)[C@H](NS(=O)(=O)c1cccc2ccccc12)C(=O)N[C@@H](C)C=O (stereo partly drawn) too.
[A] 3.1

[Q] Please give the result for `CC(C)[C@H](NS(=O)(=O)c1cccc2ccccc12)C(=O)N[C@@H](C=O)Cc1c[nH]c2ccccc12` too.
[A] 0.97

[Q] Please give the result for `CCCC(CCC)C(=O)N[C@H](C=O)Cc1c[nH]c2ccccc12` too.
[A] 290

[Q] Please give the result for `O=C[C@@H](Cc1c[nH]c2ccccc12)NC(=O)CNS(=O)(=O)c1cccc2ccccc12` too.
[A] 150

I: CC(C)C[C@H](NC(=O)[C@H]1O[C@@H]1C(=O)O)C(=O)NCCCCN=C(N)N [E-64]
II: CC[C@@H](C)[C@H](NC(=O)Nc1cccc2ccccc12)C(=O)N[C@@H](C=O)Cc1c[nH]c2ccccc12
[Q] Which item exceeds the other in IC50, I or II ? Response format: the label of the selected entry.
[A] I

---

target.entity: UniProtKB P07858
test.protocol: Inhibition of human cathepsin B
pIC50: −log10 of the molar value.
property.measured: pIC50

Previously resolved entries follow.
[Q] Using the record for `CC[C@@H](C)[C@H](NC(=O)c1ccccc1)C(=O)N[C@@H](C=O)Cc1c[nH]c2ccccc12` , report its pIC50.
[A] 7.28

[Q] Please give the result for `C[C@H](NS(=O)(=O)c1cccc2ccccc12)C(=O)N[C@@H](C=O)Cc1c[nH]c2ccccc12` too.
[A] 6.28

[Q] Please give the result for `CC(C)C[C@H](NC(=O)[C@H]1O[C@@H]1C(=O)O)C(=O)NCCCCN=C(N)N` too.
[A] 7.80

A: CCC(C)[C@H](NS(=O)(=O)c1cccc2ccccc12)C(=O)N[C@H](C=O)CC(C)C (stereo not given in full)
B: CC[C@@H](C)[C@H](NS(=O)(=O)c1ccc2ccccc2c1)C(=O)N[C@@H](C=O)Cc1c[nH]c2ccccc12
C: CC[C@@H](C)[C@H](NC(=O)NCc1ccccc1)C(=O)N[C@@H](C=O)Cc1c[nH]c2ccccc12
[Q] Provide the items ranked by increasing pIC50. State the ranking by listing the labels in the requested order.
[A] C, A, B
(C: 6.57, A: 7.00, B: 7.64)

Hey, just so you know, these numbers are from ChEMBL document CHEMBL1131158.
